Target: T-L (β2) proteasomal sub-catalytic activity (Homo sapiens)
Assay: Cell-based proteasome activity assay
Details: Ki50 T-L (β2), U266 cells, 24 h treatment
measure: pKi
Convention used: pKi is expressed as -log10 of the molar concentration.

Noted for CC(C)C[C@H](NC(=O)CNC(=O)c1cc(Cl)ccc1Cl)B(O)O : its pKi reads 7.13

====

Molecular target: T-L (β2) proteasomal sub-catalytic activity (Homo sapiens, UniProt Q99436)
Assay: Cell-based proteasome activity assay
Settings: Ki50 T-L (β2), MM.1R cells, 24 h treatment
measure: Ki (nM)
Numbers only; they are read as nM.

Short answer for CC(C)C[C@H](NC(=O)CNC(=O)c1cc(Cl)ccc1Cl)B(O)O [IXA, ixazomib] : Ki was 29.3

====

Target: C-L (β1) proteasomal sub-catalytic activity (Homo sapiens)
Assay: Cell-based proteasome activity assay
Settings: Ki50 C-L (β1), U266 cells, 24 h treatment
measure: pKi
pKi here: minus log base 10 of the concentration, concentration in moles per litre.

According to the records, this compound CC(C)C[C@H](NC(=O)CNC(=O)c1cc(Cl)ccc1Cl)B(O)O displays pKi of 7.79

====

Biological target: T-L (β2) proteasomal sub-catalytic activity (Homo sapiens)
Assay: Cell-based proteasome activity assay
Conditions: Ki50 T-L (β2), ARD cells, 24 h treatment
measure: Ki (nM)
Return type: number; implicit unit nM.

Record CC(C)C[C@H](NC(=O)CNC(=O)c1cc(Cl)ccc1Cl)B(O)O . Reported Ki: 92.8

====

Target: C-L (β1) proteasomal sub-catalytic activity (Homo sapiens, UniProt P28072)
Assay: Cell-based proteasome activity assay
Settings: Ki50 C-L (β1), MM.1R cells, 24 h treatment
measure: Ki (nM)
Hi! Could you send only the number? It should be in nM, unit omitted.

CC(C)C[C@H](NC(=O)CNC(=O)c1cc(Cl)ccc1Cl)B(O)O has a reported Ki of 7.41
